Where these numbers come from: paper PMC9760430

# ASSAY_TARGET: T1, recombinant human αvβ6 integrin (human, UniProt P06756 31-1048; P18564 22-709)
# T1 construct: integrin αv subunit, human; integrin β6 subunit, human; details of reagents are in the Supplemental Materials; Such bought integrins are, as I recall, soluble extracellular heterodimers; also called purified αvβ6; source: bought: Bio-Techne
# EXPERIMENT_DESCRIPTION: ELISA; competitive integrin binding assay: αvβ6-coated plates, isoDGR peptide labeled with peroxidase as probe for the integrin-binding site; Ki
# TEST_CONDITIONS: both partners purified
Bridge positions count the residues as written; N and C are the ends. Square brackets hold non-standard residues; d marks the D form. Ends that are not written are not given here. Lys(N3) = [N-]=[N+]=NCCCC[C@H](N)C(=O)O; Pra = C#CC[C@H](N)C(=O)O
MEASUREMENT_NAME: Ki (nM)
Return type: number; implicit unit nM.

Kindly note the recorded Ki for C(maleimide‑NOTA)FETLRGDLRILSILR[Pra]QNL[Lys(N3)]KELQD-NH2 (triazole 17-21) [5a-NOTA conjugate] , which is 2.3

Kindly note the recorded Ki for CFETLRGDLRILSILR[Pra]QNL[Lys(N3)]KELQD-NH2 (triazole 17-21) [peptide 5a] , which is 1.7
